Test system: Escherichia coli TOP10
Assay: shrunken log2 fold change of peptide-encoding DNA abundance (4.5 h post-induction vs induction); higher = less antimicrobial activity (less host growth inhibition)
Details: time post-induction: 4.5 h; library: site-saturation at positions 5, 18, 19, 20
rule met means recorded shrunken log2 fold change is -0.01 or above; rule not met means it is below -0.01.

# count of solved cases: 4
{"Seq": "RRIRNRPPRLPRPRPRPFDQPRP", "Category": "rule not met"}
{"Seq": "RRIRVRPPRLPRPRPRPWFYPRP", "Category": "rule not met"}
{"Seq": "RRIRKRPPRLPRPRPRPDFTPRP", "Category": "rule not met"}
{"Seq": "RRIRSRPPRLPRPRPRPEMKPRP", "Category": "rule met"}

Data request: Hello, I need to know if "RRIRLRPPRLPRPRPRPMMRPRP" has measured shrunken log2 fold change not below -0.01. Thanks!
Data returned: rule met

Data request: And the next one, "RRIRLRPPRLPRPRPRPNYNPRP" ?
Data returned: rule not met

###

shrunken log2 fold change by entry:
Tested on: Escherichia coli TOP10
Assay: shrunken log2 fold change of peptide-encoding DNA abundance (4.5 h post-induction vs induction); higher = less antimicrobial activity (less host growth inhibition)
Settings: time post-induction: 4.5 h; library: site-saturation at positions 5, 18, 19, 20
# answer = number (no unit)

Examples with answers:
{"Seq": "RRIRWRPPRLPRPRPRPYLAPRP", "shrunken log2 fold change": -0.211}
{"Seq": "RRIRIRPPRLPRPRPRPCIVPRP", "shrunken log2 fold change": -0.562}
{"Seq": "RRIRHRPPRLPRPRPRPYSSPRP", "shrunken log2 fold change": -0.0579}

Data request: Look up shrunken log2 fold change for this sequence: "RRIRMRPPRLPRPRPRPRKHPRP"
Data returned: 0.826

Data request: One more sequence: "RRIRFRPPRLPRPRPRPHRIPRP"
Data returned: -0.526

Data request: And then "RRIRDRPPRLPRPRPRPSLKPRP" , what is it?
Data returned: 0.155

Data request: Can you handle "RRIRNRPPRLPRPRPRPTNMPRP" next?
Data returned: -0.753

Data request: Same question for "RRIRDRPPRLPRPRPRPENDPRP" please.
Data returned: 0.41

Data request: Next: "RRIRQRPPRLPRPRPRPGIVPRP"
Data returned: 0.0144

Data request: Next record, please: "RRIRVRPPRLPRPRPRPFALPRP"
Data returned: 0.0564

Data request: And "RRIRSRPPRLPRPRPRPMYIPRP" ?
Data returned: -0.354

###

Test system: Escherichia coli TOP10
Assay: shrunken log2 fold change of peptide-encoding DNA abundance (4.5 h post-induction vs induction); higher = less antimicrobial activity (less host growth inhibition)
Details: time post-induction: 4.5 h; library: site-saturation at positions 5, 18, 19, 20
Short version: shrunken log2 fold change at least -0.01 is Yes, less is No.

Data request: Is shrunken log2 fold change at least -0.01? Consider "RRIRVRPPRLPRPRPRPGQQPRP"
Data returned: Yes

Data request: Same again, this time with "RRIRDRPPRLPRPRPRPIPQPRP"
Data returned: No

Data request: How about this sequence: "RRIRWRPPRLPRPRPRPFIIPRP"
Data returned: No

Data request: Further, for "RRIRPRPPRLPRPRPRPRMVPRP" ?
Data returned: No

Data request: Similarly, "RRIRDRPPRLPRPRPRPFLMPRP" ?
Data returned: No

Data request: Also need "RRIRYRPPRLPRPRPRPPDEPRP" , thanks.
Data returned: Yes

Data request: Next record, please: "RRIRMRPPRLPRPRPRPTGRPRP"
Data returned: Yes

Data request: Also "RRIRGRPPRLPRPRPRPNVCPRP" , if possible.
Data returned: No

Data request: And "RRIRIRPPRLPRPRPRPQEQPRP" ?
Data returned: No

Data request: Then what about the sequence "RRIRNRPPRLPRPRPRPGMCPRP" ?
Data returned: No

Data request: Now give it for "RRIRWRPPRLPRPRPRPKIYPRP" too.
Data returned: No

Data request: What do we get for "RRIRKRPPRLPRPRPRPRCNPRP" ?
Data returned: Yes

Data request: What about this sequence? "RRIRPRPPRLPRPRPRPFIMPRP"
Data returned: No

Data request: Again, but for "RRIRLRPPRLPRPRPRPTMWPRP"
Data returned: Yes

Data request: Record: "RRIRERPPRLPRPRPRPEREPRP"
Data returned: Yes

Data request: And for "RRIRFRPPRLPRPRPRPPNFPRP" ?
Data returned: No

Data request: Now consider "RRIRVRPPRLPRPRPRPKFLPRP" .
Data returned: Yes

Data request: Also, "RRIRWRPPRLPRPRPRPLYSPRP" please.
Data returned: No

Data request: Another sequence: "RRIRGRPPRLPRPRPRPIRCPRP"
Data returned: Yes

Data request: Next entry: "RRIRTRPPRLPRPRPRPNDAPRP"
Data returned: No

###

Tested on: Escherichia coli TOP10
Assay: shrunken log2 fold change of peptide-encoding DNA abundance (4.5 h post-induction vs induction); higher = less antimicrobial activity (less host growth inhibition)
Details: time post-induction: 4.5 h; library: site-saturation at positions 5, 18, 19, 20
Each item that follows carries a reported shrunken log2 fold change.
Reply with just the number.

Study these solved cases before continuing.
{"Seq": "RRIRHRPPRLPRPRPRPITHPRP", "Subject Of Test": "Escherichia coli TOP10", "shrunken log2 fold change": -0.23}
{"Seq": "RRIRYRPPRLPRPRPRPRQAPRP", "Subject Of Test": "Escherichia coli TOP10", "shrunken log2 fold change": 0.0877}
{"Seq": "RRIRIRPPRLPRPRPRPIWFPRP", "Subject Of Test": "Escherichia coli TOP10", "shrunken log2 fold change": -0.164}
{"Seq": "RRIRNRPPRLPRPRPRPSHYPRP", "Subject Of Test": "Escherichia coli TOP10", "shrunken log2 fold change": -1.22}
{"Seq": "RRIRIRPPRLPRPRPRPNSQPRP", "Subject Of Test": "Escherichia coli TOP10", "shrunken log2 fold change": -0.523}
{"Seq": "RRIRFRPPRLPRPRPRPDQMPRP", "Subject Of Test": "Escherichia coli TOP10", "shrunken log2 fold change": -0.155}
{"Seq": "RRIRQRPPRLPRPRPRPRDPPRP", "Subject Of Test": "Escherichia coli TOP10", "shrunken log2 fold change": 0.604}
{"Seq": "RRIRGRPPRLPRPRPRPWNTPRP", "Subject Of Test": "Escherichia coli TOP10", "shrunken log2 fold change": 0.111}

Data request: What value of shrunken log2 fold change has been recorded for this entry: "RRIRIRPPRLPRPRPRPYQMPRP"
Data returned: -0.35

Data request: Could you do the same for "RRIRHRPPRLPRPRPRPQFHPRP" , please?
Data returned: -0.153

Data request: Next record, please: "RRIRPRPPRLPRPRPRPKFMPRP"
Data returned: -0.171

Data request: Cool, now "RRIRHRPPRLPRPRPRPQAAPRP"
Data returned: -0.0209

Data request: Then "RRIRTRPPRLPRPRPRPNYAPRP" ?
Data returned: 0.0202

Data request: Now this one: "RRIRERPPRLPRPRPRPEAGPRP"
Data returned: 0.0425

Data request: Input "RRIRPRPPRLPRPRPRPMHIPRP"
Data returned: -0.105

###

Test system: Escherichia coli TOP10;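 also: peptides expressed intracellularly from a pBAD plasmid library in pooled LB shake-flask culture, induced with 0.3% L-arabinose, DNA abundance read by NGS, three biological replicates, DESeq2 with apeglm shrinkage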
Assay: shrunken log2 fold change of peptide-encoding DNA abundance (4.5 h post-induction vs induction); higher = less antimicrobial activity (less host growth inhibition)
Conditions: time post-induction: 4.5 h; library: site-saturation at positions 5, 18, 19, 20
Please use the following shrunken log2 fold change ranges when assigning a class: lo = under -0.08, mid = from -0.08 up to 0.09, hi = 0.09 and over

Consider the following illustrative entries.
{"Seq": "RRIRCRPPRLPRPRPRPTEAPRP", "Category": "hi"}
{"Seq": "RRIRERPPRLPRPRPRPEFPPRP", "Category": "mid"}

Data request: Please let me know in which category the item "RRIRKRPPRLPRPRPRPIPYPRP" belongs.
Data returned: lo

Data request: Same lookup for "RRIRNRPPRLPRPRPRPVLRPRP" , please.
Data returned: mid

Data request: Same again, this time with "RRIRCRPPRLPRPRPRPAGKPRP"
Data returned: mid

Data request: Please give the result for "RRIRLRPPRLPRPRPRPDPEPRP" too.
Data returned: hi

Data request: Let us now turn to "RRIRTRPPRLPRPRPRPDQDPRP"
Data returned: mid

Data request: Likewise for "RRIRIRPPRLPRPRPRPTYWPRP" ?
Data returned: lo

Data request: Now consider "RRIRYRPPRLPRPRPRPCKFPRP" and answer again.
Data returned: lo

Data request: Similarly, "RRIRKRPPRLPRPRPRPTGRPRP" ?
Data returned: hi

Data request: What do we get for "RRIRRRPPRLPRPRPRPDPRPRP" ?
Data returned: hi
